Each recorded value in this set is attributed to patent US20110183861A1.

# target: T1, A1 domain of vWF (UniProt P04275 1261-1468, limits assumed)
# T1 construct: domain: A1 domain; also called vWF A1 domain
# run-description: SPR (BIAcore), vWF A1 domain on sensor-chip
property: pKd
As a rule, pKd stands for the negative log10 of the concentration, concentration in M.

[ask] Which measured pKd value corresponds to SEQ ID NO: 2 D62A (VHH) VHH: EVQLVESGGGLVQPGGSLRLSCAASGRTFSYNPMGWFRQAPGKGRELVAAISRTGGSTYYPASVEGRFTISRDNAKRMVYLQMNSLRAEDTAVYYCAAAGVRAEDGRVRTLPSEYTFWGQGTQVTVSS ?
[reply] 9.00

[ask] Which measured pKd value corresponds to SEQ ID NO: 2 D62E (VHH) VHH: EVQLVESGGGLVQPGGSLRLSCAASGRTFSYNPMGWFRQAPGKGRELVAAISRTGGSTYYPESVEGRFTISRDNAKRMVYLQMNSLRAEDTAVYYCAAAGVRAEDGRVRTLPSEYTFWGQGTQVTVSS ?
[reply] 8.89

[ask] Which measured pKd value corresponds to SEQ ID NO: 2 D105N (VHH) VHH: EVQLVESGGGLVQPGGSLRLSCAASGRTFSYNPMGWFRQAPGKGRELVAAISRTGGSTYYPDSVEGRFTISRDNAKRMVYLQMNSLRAEDTAVYYCAAAGVRAENGRVRTLPSEYTFWGQGTQVTVSS ?
[reply] 9.10

[ask] Which measured pKd value corresponds to SEQ ID NO: 2 D105A (VHH) VHH: EVQLVESGGGLVQPGGSLRLSCAASGRTFSYNPMGWFRQAPGKGRELVAAISRTGGSTYYPDSVEGRFTISRDNAKRMVYLQMNSLRAEDTAVYYCAAAGVRAEAGRVRTLPSEYTFWGQGTQVTVSS ?
[reply] 8.03
